B1: mRNA-splicing (parent)
chain: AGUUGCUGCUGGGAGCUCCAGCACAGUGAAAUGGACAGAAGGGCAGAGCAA

Variants of: B1
Experiment: exon inclusion enrichment index; higher = more inclusion; WT1 exon 5 minigene, HEK293
Reported exon inclusion enrichment index values follow for various variants
# answer = number (no unit)

The examples below pair each entry with its known result.
AGUUAUAUAUGGGAGCUCCAUUACAGUGAAAUGGACAGAAGGGCAGAGCAA [G5A C6U U7A G8U C9A G21U C22U]	0.00572
AGUUGAAGAAGGGAGCUCCAGCACAUCGAAAUGGACAGAAGGGCAGAGCAA [C6A U7A C9A U10A G26U U27C]	2.22
AGUUACCACCGGGAACUCCAGCACAGUGAAAUGGACAGAAGGGCAGAGCAA [G5A U7C G8A U10C G15A]	2.02
AGUUGACGACGGGAUAUCCAGCACAGUGAAAUGGACAGAAGGGCAGAGCAA [C6A U7C C9A U10C G15U C16A]	2.78
AGUUACCACCGGGAGCUCCAGCACAGUGAAAUGGUUAGAAGGGCAGAGCAA [G5A U7C G8A U10C A35U C36U]	0.0422

exon inclusion enrichment index in this record for AGUUAUAUAUGGGAGCUCCAGCACAGUGAAAUGGACAGAAUGGCAGAGCAA [G5A C6U U7A G8U C9A G41U] : 0.077

exon inclusion enrichment index in this record for AGUUACCACCGGGAGCUCCAGCACAGUGAAAUGGACAGAAGGUAAGAGCAA [G5A U7C G8A U10C G43U C44A] : 0.058

exon inclusion enrichment index in this record for AGUUCGCGCCGGGAGCUCCAGCACAGUGAAAUGGACAGAAGGUUAGAGCAA [G5C C6G U7C U10C G43U C44U] : 1.4

exon inclusion enrichment index in this record for AGUUACCACUUGGAGCUCCAGCACAGUGAAAUGGACAGAAGGGCAGAGCAA [G5A U7C G8A G11U] : 1.23

exon inclusion enrichment index in this record for AGUUGAAGAAGGGAGCUCCAGCACAGUGAAAUGGACCAAAGGGCAGAGCAA [C6A U7A C9A U10A A37C G38A] : 0.719

exon inclusion enrichment index in this record for AGUUCUUCUCGGGAGCUCCAGCACAGUGAAAUGGGGAGAAGGGCAGAGCAA [G5C C6U G8C C9U U10C A35G C36G] : 0.14

exon inclusion enrichment index in this record for AGUUGACGACGGGAGCUCCAGCUAAGUGAAAUGGACAGAAGGGCAGAGCAA [C6A U7C C9A U10C A23U C24A] : 1.89

exon inclusion enrichment index in this record for AGUUGCUGGUGGGAGCUCCAGCACAGUGAAAUGGACAGAAGGGCAGAGCAA [C9G] : 0.154

exon inclusion enrichment index in this record for AGUUCUUCUCGGGAGCUCCAGCACAGUGAAAUGGACAGAAGAACAGAGCAA [G5C C6U G8C C9U U10C G42A G43A] : 4.1

exon inclusion enrichment index in this record for AGCUAGGGAUGGGAGCUCCAGCACAGUGAAAUGGACAGAAGGGCAGAGCAA [U3C G5A C6G U7G C9A] : 0.00112
